# Assay comment: Solubility of Compound 1 in salt-screening solvents
# Format: physicochemical
# Condition context: MTBE, organic solvent or mixture; read-out: solubility of Compound 1 (S)
Readout label: solubility

                                   compound  experimental_result
0  O=C(O)C[C@@H]1CC[C@H](NC(=O)Cc2cccs2)B(O)O1         < 1000 µg/mL

====

# Assay comment: Solubility of Compound 1 in salt-screening solvents
# Format: physicochemical
# Condition context: 1,4-dioxane, organic solvent or mixture; read-out: solubility of Compound 1 (S)
Readout label: solubility

>>> print(df.to_string())
                                   compound  experimental_result
0  O=C(O)C[C@@H]1CC[C@H](NC(=O)Cc2cccs2)B(O)O1        1 to 10 mg/mL

====

# Assay comment: Solubility of Compound 1 in salt-screening solvents
# Type: physicochemical
# Condition context: organic solvent or mixture; ACN: Water (90:10% vol.); read-out: solubility of Compound 1 (S)
# Experimental: Nine solvent systems were evaluated in the Salt-screening study. The solvents were selected based on the solubility data accumulated during preceding studies. In addition, solvents represented a diverse set of polarities, dielectric constants, dipole moments, and hydrogen-bond donor/acceptor attributes to promote crystallization of salts.
Readout label: solubility

>>> print(df.to_string())
                                   compound  readout_label  experimental_result
0  O=C(O)C[C@@H]1CC[C@H](NC(=O)Cc2cccs2)B(O)O1 [Compound 1]     solubility           < 20 mg/mL

====

# Assay comment: Solubility of Compound 1 in salt-screening solvents
# Type: physicochemical
# Condition context: acetonitrile (ACN), organic solvent or mixture; read-out: solubility of Compound 1 (S)
Readout label: solubility

>>> print(df.to_string())
                                   compound  readout_label  experimental_result
0  O=C(O)C[C@@H]1CC[C@H](NC(=O)Cc2cccs2)B(O)O1     solubility         < 1000 µg/mL

====

# Assay comment: Solubility of Compound 1 in salt-screening solvents
# Assay type: physicochemical
# Condition context: acetone, organic solvent or mixture; read-out: solubility of Compound 1 (S)
Readout label: solubility

                                   compound  readout_label  experimental_result
0  O=C(O)C[C@@H]1CC[C@H](NC(=O)Cc2cccs2)B(O)O1     solubility         < 1000 µg/mL
